The entries below come with measured IC50 values attached.
Target: PI3K β (p110β/p85α) (Homo sapiens, UniProt P42338)
Construct: purchased Upstate / Millipore Corporation
Sequence (P42338 whole entry): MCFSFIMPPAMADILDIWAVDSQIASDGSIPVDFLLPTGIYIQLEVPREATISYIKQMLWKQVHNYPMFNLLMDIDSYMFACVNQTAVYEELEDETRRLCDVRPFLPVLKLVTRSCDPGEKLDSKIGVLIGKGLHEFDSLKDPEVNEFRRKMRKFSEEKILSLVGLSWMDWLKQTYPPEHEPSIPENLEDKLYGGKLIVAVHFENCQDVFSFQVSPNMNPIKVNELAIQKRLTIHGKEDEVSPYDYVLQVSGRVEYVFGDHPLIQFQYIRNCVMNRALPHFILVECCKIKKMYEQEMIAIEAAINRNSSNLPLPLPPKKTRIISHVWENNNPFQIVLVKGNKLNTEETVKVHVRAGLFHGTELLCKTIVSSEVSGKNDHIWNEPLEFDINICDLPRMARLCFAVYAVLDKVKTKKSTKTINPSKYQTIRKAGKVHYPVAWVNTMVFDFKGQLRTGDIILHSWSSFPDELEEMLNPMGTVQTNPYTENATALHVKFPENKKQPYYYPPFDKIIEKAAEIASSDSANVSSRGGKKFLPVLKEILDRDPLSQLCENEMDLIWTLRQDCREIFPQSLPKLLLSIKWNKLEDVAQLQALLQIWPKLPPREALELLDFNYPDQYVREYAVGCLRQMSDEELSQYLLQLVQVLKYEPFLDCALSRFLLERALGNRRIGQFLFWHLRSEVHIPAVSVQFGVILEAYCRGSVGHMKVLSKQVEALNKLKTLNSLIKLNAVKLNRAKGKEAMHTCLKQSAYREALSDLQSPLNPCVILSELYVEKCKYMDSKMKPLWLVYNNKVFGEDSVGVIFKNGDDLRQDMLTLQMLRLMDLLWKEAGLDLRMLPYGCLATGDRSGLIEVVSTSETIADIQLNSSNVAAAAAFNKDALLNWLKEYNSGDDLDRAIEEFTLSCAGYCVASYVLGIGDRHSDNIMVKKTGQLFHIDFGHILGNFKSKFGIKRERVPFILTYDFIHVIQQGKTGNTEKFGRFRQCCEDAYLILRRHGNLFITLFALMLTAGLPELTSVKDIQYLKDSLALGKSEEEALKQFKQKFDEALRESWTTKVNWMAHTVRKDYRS
Sequence (P27986 whole entry partner): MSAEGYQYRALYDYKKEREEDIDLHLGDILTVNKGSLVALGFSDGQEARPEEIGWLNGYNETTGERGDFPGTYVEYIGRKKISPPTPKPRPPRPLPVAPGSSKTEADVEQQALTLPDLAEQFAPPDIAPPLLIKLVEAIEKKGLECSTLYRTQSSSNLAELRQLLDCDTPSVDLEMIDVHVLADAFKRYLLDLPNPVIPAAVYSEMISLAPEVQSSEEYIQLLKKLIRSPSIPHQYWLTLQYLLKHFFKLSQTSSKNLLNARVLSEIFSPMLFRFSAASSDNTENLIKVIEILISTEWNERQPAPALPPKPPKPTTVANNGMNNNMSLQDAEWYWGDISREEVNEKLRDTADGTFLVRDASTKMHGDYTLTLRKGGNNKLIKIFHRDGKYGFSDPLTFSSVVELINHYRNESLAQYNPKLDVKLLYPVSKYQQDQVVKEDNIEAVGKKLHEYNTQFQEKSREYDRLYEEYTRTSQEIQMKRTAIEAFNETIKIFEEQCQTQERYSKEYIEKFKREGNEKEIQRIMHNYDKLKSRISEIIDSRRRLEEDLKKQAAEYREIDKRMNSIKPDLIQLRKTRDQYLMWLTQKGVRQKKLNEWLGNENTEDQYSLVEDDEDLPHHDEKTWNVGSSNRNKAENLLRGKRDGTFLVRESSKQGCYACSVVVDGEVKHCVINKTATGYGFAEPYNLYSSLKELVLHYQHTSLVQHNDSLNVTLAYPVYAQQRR
Experiment: PI 3-Kinase (human) HTRF assay, PI3K β
Type: biochemical
Settings: Table 4 (PI3K α inhibitors); read-out: PI3K β IC50

{"columns": ["COMPOUND", "EXPERIMENTAL TARGET", "IC50"],
 "data": [
  ["Nc1nc2cc(-c3ccc4ncc(N5CCC(F)(F)CC5)nc4n3)ccc2o1", "PI3K β (p110β/p85α) (Homo sapiens, UniProt P42338)", "> 10 µM"],
  ["CS(=O)(=O)N1CCN(C2CN(c3cnc4ccc(-c5ccc6oc(N)nc6c5)nc4n3)C2)CC1", "PI3K β (p110β/p85α) (Homo sapiens, UniProt P42338)", "> 10 µM"],
  ["CC(C)N1CCN(c2cnc3ccc(-c4ccc5oc(N)nc5c4)nc3n2)CC1", "PI3K β (p110β/p85α) (Homo sapiens, UniProt P42338)", "< 1 µM"],
  ["NCC(=O)N1CCN(c2cnc3ccc(-c4ccc5oc(N)nc5c4)nc3c2)CC1", "PI3K β (p110β/p85α) (Homo sapiens, UniProt P42338)", "< 1 µM"],
  ["CC(C)N1CCN(C2CN(c3cnc4ccc(-c5ccc6oc(N)nc6c5)nc4c3)C2)CC1", "PI3K β (p110β/p85α) (Homo sapiens, UniProt P42338)", "< 1 µM"],
  ["C[C@H]1CN(C2CN(c3cnc4ccc(-c5ccc6oc(N)nc6c5)nc4n3)C2)CCN1C [Compound 572]", "PI3K β (p110β/p85α) (Homo sapiens, UniProt P42338)", "> 10 µM"],
  ["Nc1nc2cc(-c3ccc4ncc(N5CCOCC5)cc4n3)ccc2o1", "PI3K β (p110β/p85α) (Homo sapiens, UniProt P42338)", "< 1 µM"],
  ["C[C@H]1COCCN1C1CN(c2cnc3ccc(-c4ccc5oc(N)nc5c4)nc3n2)C1", "PI3K β (p110β/p85α) (Homo sapiens, UniProt P42338)", "> 10 µM"],
  ["C[C@H]1CN(C2CN(c3cnc4ccc(-c5ccc6oc(N)nc6c5)nc4n3)C2)CCN1", "PI3K β (p110β/p85α) (Homo sapiens, UniProt P42338)", "> 10 µM"],
  ["C[C@H]1COCCN1C1CN(c2cnc3ccc(-c4ccc5oc(N)nc5c4)nc3c2)C1", "PI3K β (p110β/p85α) (Homo sapiens, UniProt P42338)", "> 10 µM"],
  ["CN1CCN(C2CN(c3cnc4ccc(-c5ccc6oc(N)nc6c5)nc4c3)C2)CC1", "PI3K β (p110β/p85α) (Homo sapiens, UniProt P42338)", "< 1 µM"],
  ["Nc1nc2cc(-c3ccc4nc(N5CCOCC5)cnc4n3)ccc2o1", "PI3K β (p110β/p85α) (Homo sapiens, UniProt P42338)", "> 10 µM"],
  ["CCOC(=O)N1CCN(c2cnc3ccc(-c4ccc5oc(N)nc5c4)nc3n2)CC1", "PI3K β (p110β/p85α) (Homo sapiens, UniProt P42338)", "< 1 µM"],
  ["CC(C)N1CCN(C2CN(c3cnc4ccc(-c5ccc6oc(N)nc6c5)nc4n3)C2)CC1", "PI3K β (p110β/p85α) (Homo sapiens, UniProt P42338)", "> 10 µM"],
  ["Nc1nc2cc(-c3ccc4ncc(N5CC(N6CCOCC6)C5)nc4n3)ccc2o1", "PI3K β (p110β/p85α) (Homo sapiens, UniProt P42338)", "> 10 µM"],
  ["CC(C)N1CCN(c2cnc3ccc(-c4ccc5oc(N)nc5c4)nc3c2)CC1", "PI3K β (p110β/p85α) (Homo sapiens, UniProt P42338)", "< 1 µM"],
  ["C[C@@H]1COCCN1C1CN(c2cnc3ccc(-c4ccc5oc(N)nc5c4)nc3n2)C1", "PI3K β (p110β/p85α) (Homo sapiens, UniProt P42338)", "> 10 µM"]
]}
